experiment: recombinant UMI read abundance after kanamycin selection (control-corrected) (log10(CPM+1)); higher = more efficient recombination; extreme values may be limits of the assay; sequences stand for … in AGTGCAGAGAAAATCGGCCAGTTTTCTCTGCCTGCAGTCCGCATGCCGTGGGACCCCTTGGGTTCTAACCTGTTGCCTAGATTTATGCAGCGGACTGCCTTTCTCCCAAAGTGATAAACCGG…AGGTTGGTTTCACT; site = the 11-nt donor
Threshold check on recombinant UMI read abundance (log10): at or above 1 gives Met, strictly below gives Not met.

Q) Given GCGAAGCCATGGACCGGTTTTCCCGGTAATCCGTATTTGGT (site GCGAAGCCTAC) , state whether its recombinant UMI read abundance (log10) is at least 1.
A) Not met

Q) Given GGGAATACATGGACCGGTTTTCCCGGTAATCCGTATTTGCA (site GGGAATACTTG) , state whether its recombinant UMI read abundance (log10) is at least 1.
A) Met

Q) Given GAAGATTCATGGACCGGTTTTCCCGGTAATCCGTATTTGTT (site GAAGATACTAA) , state whether its recombinant UMI read abundance (log10) is at least 1.
A) Not met

Q) Given GAGGTGGCATGGACCGGTTTTCCCGGTAATCCGTATTTGGC (site GAGGTGGCTGC) , state whether its recombinant UMI read abundance (log10) is at least 1.
A) Met

Q) Given GCGAAAACATGGACCGGTTTTCCCGGTAATCCGTATTTGTT (site GCGAAAACTAG) , state whether its recombinant UMI read abundance (log10) is at least 1.
A) Met

Q) Given CGCAATCCATGGACCGGTTTTCCCGGTAATCCGTATTTGTT (site CGCAATCCTAA) , state whether its recombinant UMI read abundance (log10) is at least 1.
A) Not met

Q) Given GTTTGAGCATGGACCGGTTTTCCCGGTAATCCGTATTTGCA (site GTTTGAGCTTG) , state whether its recombinant UMI read abundance (log10) is at least 1.
A) Met

Q) Given TAAGAAACATGGACCGGTTTTCCCGGTAATCCGTATTTGCT (site TAAGAAACTAG) , state whether its recombinant UMI read abundance (log10) is at least 1.
A) Met

###

test: recombinant barcode read abundance after kanamycin selection (control-corrected) (log10(CPM+1)); higher = more efficient recombination; sequences stand for … in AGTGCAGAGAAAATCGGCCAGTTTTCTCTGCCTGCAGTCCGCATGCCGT…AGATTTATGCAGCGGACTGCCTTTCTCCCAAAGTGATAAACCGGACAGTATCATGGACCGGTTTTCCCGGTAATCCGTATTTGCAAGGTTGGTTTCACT; site = the 11-nt target
Ranges used to classify recombinant barcode read abundance (log10): low = under 0.1, medium = from 0.1 up to 0.4, high = 0.4 and over

Q) Lab log: CGCCCTTCTTGGGTTCTAACCTGTTGCCT (site TAAGGGACTTA) — assign recombinant barcode read abundance (log10) category
A) low

Q) Lab log: CTCTAGTCTTGGGTTCTAACCTGTTGCAT (site CTCTAGTCTAA) — assign recombinant barcode read abundance (log10) category
A) high

Q) Lab log: GGGACTTCTTGGGTTCTAACCTGTTGCAT (site GGGACTTCTAT) — assign recombinant barcode read abundance (log10) category
A) high

Q) Lab log: TGGAGCCCTTGGGTTCTAACCTGTTGCAG (site TGGAGCCCTTT) — assign recombinant barcode read abundance (log10) category
A) low

Q) Lab log: AAGATTCCTTGGGTTCTAACCTGTTGCCT (site ACGATTCCTAG) — assign recombinant barcode read abundance (log10) category
A) low

Q) Lab log: TCCGAGACTTGGGTTCTAACCTGTTGCCG (site TCCGAGACTCG) — assign recombinant barcode read abundance (log10) category
A) high

Q) Lab log: TACTACCCTTGGGTTCTAACCTGTTGCCA (site TACTACCCTTG) — assign recombinant barcode read abundance (log10) category
A) high

Q) Lab log: AACTTCACTTGGGTTCTAACCTGTTGCCT (site AACTTCGCTAG) — assign recombinant barcode read abundance (log10) category
A) medium

Q) Lab log: ACAGTGGCTTGGGTTCTAACCTGTTGCGG (site CTTCGCCCTAA) — assign recombinant barcode read abundance (log10) category
A) low

Q) Lab log: ATAACTACTTGGGTTCTAACCTGTTGCCA (site ATGTCTACTTG) — assign recombinant barcode read abundance (log10) category
A) medium

Q) Lab log: TTCTTAACTTGGGTTCTAACCTGTTGCGG (site ACTGATCCTAT) — assign recombinant barcode read abundance (log10) category
A) low

Q) Lab log: CTAATTGCTTGGGTTCTAACCTGTTGCCT (site CCAATTGCTAG) — assign recombinant barcode read abundance (log10) category
A) medium

Q) Lab log: CTAGTTACTTGGGTTCTAACCTGTTGCCT (site CTACTTACTAG) — assign recombinant barcode read abundance (log10) category
A) medium

Q) Lab log: AAGCCTTCTTGGGTTCTAACCTGTTGCTG (site AAGCCTTCTCA) — assign recombinant barcode read abundance (log10) category
A) high

Q) Lab log: GTCGTCACTTGGGTTCTAACCTGTTGCCT (site GTCGTCCCTAG) — assign recombinant barcode read abundance (log10) category
A) low

Q) Lab log: TACCAGACTTGGGTTCTAACCTGTTGCCT (site TACCCGACTAG) — assign recombinant barcode read abundance (log10) category
A) low

Q) Lab log: CTGATCCCTTGGGTTCTAACCTGTTGCCT (site CGGATCCCTAG) — assign recombinant barcode read abundance (log10) category
A) medium

Q) Lab log: ACCCTAACTTGGGTTCTAACCTGTTGCCG (site ACCCTATCTAG) — assign recombinant barcode read abundance (log10) category
A) medium

Q) Lab log: CGTGCAGCTTGGGTTCTAACCTGTTGCCT (site CGTGCAGCTAG) — assign recombinant barcode read abundance (log10) category
A) medium

Q) Lab log: CTATTCCCTTGGGTTCTAACCTGTTGCCT (site CTATTCTCTAG) — assign recombinant barcode read abundance (log10) category
A) high
